Assign inhibition at 1000 µg/mL to each entry below.
Biological target: α-L-fucosidase (Bos taurus, UniProt Q2KIM0)
Construct: purchased Sigma; host or cells: bovine kidney
Sequence (Q2KIM0 23-468): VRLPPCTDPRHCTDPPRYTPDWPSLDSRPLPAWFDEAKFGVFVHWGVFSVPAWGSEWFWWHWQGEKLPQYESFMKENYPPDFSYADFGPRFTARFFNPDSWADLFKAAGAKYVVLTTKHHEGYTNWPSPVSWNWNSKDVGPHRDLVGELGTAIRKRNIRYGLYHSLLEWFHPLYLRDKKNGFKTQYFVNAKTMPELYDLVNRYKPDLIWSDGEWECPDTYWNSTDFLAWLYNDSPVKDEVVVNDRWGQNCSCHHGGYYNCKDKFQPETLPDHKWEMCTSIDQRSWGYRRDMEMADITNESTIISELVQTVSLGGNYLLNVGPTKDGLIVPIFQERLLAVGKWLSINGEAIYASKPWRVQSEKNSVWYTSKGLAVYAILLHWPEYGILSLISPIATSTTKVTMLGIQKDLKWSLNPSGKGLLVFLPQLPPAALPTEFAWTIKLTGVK
Test: Glycosidase inhibition: α-L-fucosidase
Type: biochemical, Bovine kidney
Conditions: 1 mg/ml; pH 5.5, 20° C
Express the result in % but write the number alone.

Data request, read-out inhibition at 1000 µg/mL, for CC[C@@H]1N[C@@H](CO)[C@H](O)[C@@H](O)[C@@H]1O [Compound 23]
0

Data request, read-out inhibition at 1000 µg/mL, for O[C@H]1[C@H](O)[C@@H](O)CN2CC[C@H](O)[C@H]12 [Compound 104, Castanospermine, reference compound]
0

Data request, read-out inhibition at 1000 µg/mL, for CC[C@@H](O)[C@H]1N[C@H](CO)[C@@H](O)[C@@H]1O [Compound 62]
0

Data request, read-out inhibition at 1000 µg/mL, for OC[C@@H]1NC[C@H](O)[C@@H]1O [Compound 167]
28

Data request, read-out inhibition at 1000 µg/mL, for CC(O)[C@H](O)[C@H]1N[C@H](CO)[C@@H](O)[C@@H]1O (some centres unmarked) [Compound 63]
0

Data origin, for the record: patent US20110195929A1
